Target: Adenosine receptor A1 (Homo sapiens); note: in other assays of this panel Not Active means under 50% inhibition at 10 µM;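 note: radioligand binding assay at the adenosine A1 receptor, with DPCPX serving as the labelled ligand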
Sequence (P30542 whole entry): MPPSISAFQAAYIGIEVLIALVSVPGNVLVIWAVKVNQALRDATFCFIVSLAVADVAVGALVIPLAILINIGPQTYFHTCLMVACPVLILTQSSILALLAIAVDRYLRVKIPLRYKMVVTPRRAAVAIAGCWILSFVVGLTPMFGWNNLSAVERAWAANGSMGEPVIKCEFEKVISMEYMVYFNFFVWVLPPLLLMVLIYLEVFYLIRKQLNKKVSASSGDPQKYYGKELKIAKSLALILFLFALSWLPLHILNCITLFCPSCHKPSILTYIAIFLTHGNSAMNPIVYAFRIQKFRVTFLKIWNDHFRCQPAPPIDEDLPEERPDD
Assay type: cell membranes, CHO, Membrane
Conditions: cho
measured_parameter: IC50

Example cases with answers are listed next.
{"compound": "Cc1c(-c2ccccc2)oc2c(C(=O)OCCN3CCCCC3)cccc2c1=O [FLAVOXATE]", "measured_parameter": "IC50", "observed_measurement": "Not Active"}
{"compound": "COC(=O)[C@H](c1ccccc1Cl)N1CCc2sccc2C1", "measured_parameter": "IC50", "observed_measurement": "Not Active"}
{"compound": "CC(C)NC[C@H](O)COc1cccc2[nH]ccc12", "measured_parameter": "IC50", "observed_measurement": "Not Active"}
{"compound": "COc1ccc([C@@H]2Sc3ccccc3N(CCN(C)C)C(=O)[C@@H]2OC(C)=O)cc1", "measured_parameter": "IC50", "observed_measurement": "Not Active"}

For the next question, use this compound.
Query O=c1[nH]cc(F)c(=O)[nH]1 yields IC50 of Not Active

* * *

target: Neuropeptide Y receptor type 2 (Homo sapiens); type: cell membranes, Membrane; conditions: kan-ts; note: in other assays of this panel Not Active means under 50% inhibition at 10 µM
Sequence (P49146 whole entry): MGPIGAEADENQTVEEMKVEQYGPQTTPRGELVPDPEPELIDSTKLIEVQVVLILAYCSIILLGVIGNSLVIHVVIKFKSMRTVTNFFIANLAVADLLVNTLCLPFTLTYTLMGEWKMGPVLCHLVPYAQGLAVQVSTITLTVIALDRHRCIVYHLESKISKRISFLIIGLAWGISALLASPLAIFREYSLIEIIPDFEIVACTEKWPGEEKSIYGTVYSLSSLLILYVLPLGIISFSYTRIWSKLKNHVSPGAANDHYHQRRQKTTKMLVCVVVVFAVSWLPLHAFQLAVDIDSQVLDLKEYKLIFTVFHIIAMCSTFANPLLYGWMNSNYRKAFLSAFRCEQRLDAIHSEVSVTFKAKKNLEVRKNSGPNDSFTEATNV

{"compound": "CC[C@H]1OC(=O)[C@H](C)[C@@H](O[C@H]2C[C@@](C)(OC)[C@@H](O)[C@H](C)O2)[C@H](C)[C@@H](O[C@@H]2O[C@H](C)C[C@H](N(C)C)[C@H]2O)[C@](C)(O)C[C@@H](C)/C(=N\\OCOCCOC)[C@H](C)[C@@H](O)[C@]1(C)O [ROXITHROMYCIN]", "system": "Neuropeptide Y receptor type 2 (Homo sapiens)", "IC50": "Not Active"}
{"compound": "CC=CC(=O)N(CC)c1ccccc1C", "system": "Neuropeptide Y receptor type 2 (Homo sapiens)", "IC50": "Not Active"}
{"compound": "CN1C(C(=O)Nc2ccccn2)=C(O)c2ccccc2S1(=O)=O [PIROXICAM]", "system": "Neuropeptide Y receptor type 2 (Homo sapiens)", "IC50": "Not Active"}

* * *

target: UniProt:P06239; experiment: DRUGMATRIX: Protein Tyrosine Kinase, LCK enzyme inhibition (substrate: Poly(Glu:Tyr)); type: cell-based, Insect cells; details: Not Active = under 50% inhibition at 10 µM; read-out: IC50
Sequence (P06239 whole entry): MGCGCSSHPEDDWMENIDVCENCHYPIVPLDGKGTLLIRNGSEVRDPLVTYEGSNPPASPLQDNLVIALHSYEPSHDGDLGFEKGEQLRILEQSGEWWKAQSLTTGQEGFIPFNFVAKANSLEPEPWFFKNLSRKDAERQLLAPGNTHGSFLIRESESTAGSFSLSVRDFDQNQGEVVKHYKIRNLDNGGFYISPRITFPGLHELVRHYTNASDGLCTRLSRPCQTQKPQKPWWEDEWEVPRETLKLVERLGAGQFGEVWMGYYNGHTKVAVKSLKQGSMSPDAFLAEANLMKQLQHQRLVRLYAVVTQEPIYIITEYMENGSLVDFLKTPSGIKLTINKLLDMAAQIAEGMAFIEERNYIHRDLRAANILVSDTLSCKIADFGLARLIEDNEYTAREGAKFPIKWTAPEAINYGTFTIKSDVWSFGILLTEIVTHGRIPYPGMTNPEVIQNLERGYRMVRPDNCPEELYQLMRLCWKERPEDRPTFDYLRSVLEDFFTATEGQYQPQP
measured_parameter: pIC50
Note on pIC50: it is the negative log10 of concentration, concentration in mol/L.

pIC50 on UniProt:P06239 for CN1C[C@H](C(=O)N[C@]2(C)O[C@@]3(O)[C@@H]4CCCN4C(=O)[C@H](Cc4ccccc4)N3C2=O)C=C2c3cccc4[nH]cc(c34)C[C@H]21 [ERGOTAMINE] is 5.19

pIC50 on UniProt:P06239 for COc1ccc(CCN2CCC(Nc3nc4ccccc4n3Cc3ccc(F)cc3)CC2)cc1 [ASTEMIZOLE] is 4.70

pIC50 on UniProt:P06239 for Oc1c(I)cc(I)c2cccnc12 [IODOQUINOL] is 5.61

pIC50 on UniProt:P06239 for Oc1c(Cl)cc(Cl)cc1Sc1cc(Cl)cc(Cl)c1O [BITHIONOL] is 5.65

* * *

experiment: DRUGMATRIX: Imidazoline I2, Central radioligand binding (ligand: [3H] Idazoxan); format: cell membranes, Rattus norvegicus, Wistar, Cerebral cortex, Membrane; settings: Not Active = under 50% inhibition at 10 µM

{"molecule": "COc1ccc(C(CN(C)C)C2(O)CCCCC2)cc1 (stereo not drawn)", "Ki": "Not Active"}
{"molecule": "CCCSc1ccc2nc(NC(=O)OC)[nH]c2c1", "Ki": "Not Active"}
{"molecule": "C=CC[C@@H]1/C=C(\\C)C[C@H](C)C[C@H](OC)[C@H]2O[C@@](O)(C(=O)C(=O)N3CCCC[C@H]3C(=O)O[C@H](/C(C)=C/[C@@H]3CC[C@@H](O)[C@H](OC)C3)[C@H](C)[C@@H](O)CC1=O)[C@H](C)C[C@@H]2OC [TACROLIMUS ANHYDROUS]", "Ki": "Not Active"}

* * *

target: 5-hydroxytryptamine receptor 4 (Cavia porcellus, UniProt O70528); assay type: cell membranes, Dunkin-Hartley, Striatum, Membrane; note: in other assays of this panel Not Active means under 50% inhibition at 10 µM
Sequence (O70528 whole entry): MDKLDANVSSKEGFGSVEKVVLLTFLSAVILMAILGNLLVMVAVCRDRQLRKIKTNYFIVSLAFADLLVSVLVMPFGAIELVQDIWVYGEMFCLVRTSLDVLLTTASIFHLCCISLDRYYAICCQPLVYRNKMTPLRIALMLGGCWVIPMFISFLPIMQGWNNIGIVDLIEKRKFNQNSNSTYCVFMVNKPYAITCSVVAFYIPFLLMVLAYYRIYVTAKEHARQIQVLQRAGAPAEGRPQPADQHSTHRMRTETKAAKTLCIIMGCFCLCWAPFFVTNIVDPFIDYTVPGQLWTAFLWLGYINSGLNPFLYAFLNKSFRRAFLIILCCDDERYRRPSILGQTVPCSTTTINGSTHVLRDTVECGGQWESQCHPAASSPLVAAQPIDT
measured_parameter: IC50

{"compound": "Oc1c(Cl)cc(Cl)cc1Sc1cc(Cl)cc(Cl)c1O [BITHIONOL]", "IC50": "Not Active"}
{"compound": "CC(C)(C)NCC(O)c1cc(O)cc(O)c1 (configuration not stated) [TERBUTALINE]", "IC50": "Not Active"}
{"compound": "COC(=O)c1ccc(O)cc1 [METHYLPARABEN]", "IC50": "Not Active"}
{"compound": "COc1cccc(C2(O)CCCCC2CN(C)C)c1 (configuration not stated) [TRAMADOL]", "IC50": "Not Active"}

IC50 on 5-hydroxytryptamine receptor 4 (Cavia porcellus, UniProt O70528) for CN(C)CCCN1c2ccccc2CCc2ccc(Cl)cc21 [CLOMIPRAMINE] is Not Active

IC50 on 5-hydroxytryptamine receptor 4 (Cavia porcellus, UniProt O70528) for COC(=O)[C@@H]1[C@H]2C[C@H]3c4[nH]c5ccccc5c4CCN3C[C@@H]2CC[C@@H]1O [YOHIMBINE] is Not Active

* * *

biological target: UniProt:P43140; experiment: DRUGMATRIX: Alpha-1A adrenergic receptor radioligand binding (ligand: prazosin); type: cell membranes, Wistar, Submaxillary gland, Membrane; details: Not Active = under 50% inhibition at 10 µM; read-out: Ki
Sequence (P43140 whole entry): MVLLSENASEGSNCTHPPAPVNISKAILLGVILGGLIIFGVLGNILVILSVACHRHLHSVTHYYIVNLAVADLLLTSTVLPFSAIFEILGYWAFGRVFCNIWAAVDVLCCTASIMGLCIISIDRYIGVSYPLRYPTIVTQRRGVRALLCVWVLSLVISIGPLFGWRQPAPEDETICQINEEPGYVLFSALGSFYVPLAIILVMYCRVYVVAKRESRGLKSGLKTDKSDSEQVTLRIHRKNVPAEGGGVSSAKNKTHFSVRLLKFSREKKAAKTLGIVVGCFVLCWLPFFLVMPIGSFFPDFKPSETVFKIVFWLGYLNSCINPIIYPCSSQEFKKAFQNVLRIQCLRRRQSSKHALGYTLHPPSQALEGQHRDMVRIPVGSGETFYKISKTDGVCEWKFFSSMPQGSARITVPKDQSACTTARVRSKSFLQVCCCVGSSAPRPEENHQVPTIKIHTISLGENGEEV
measured_parameter: pKi
Note on pKi: it is the negative log10 of concentration, concentration in mol/L.

pKi on UniProt:P43140 for CC(CCc1ccccc1)NCC(O)c1ccc(O)c(C(N)=O)c1 (stereo not given) is 7.64

pKi on UniProt:P43140 for CN(C)CCCC1(c2ccc(F)cc2)OCc2cc(C#N)ccc21 (stereo not given) is 6.15

pKi on UniProt:P43140 for COc1ccc(CCN2CCC(Nc3nc4ccccc4n3Cc3ccc(F)cc3)CC2)cc1 is 8.00

pKi on UniProt:P43140 for CSc1ccc2c(c1)N(CCC1CCCCN1C)c1ccccc1S2 (stereo not given) is 8.69

pKi on UniProt:P43140 for Clc1ccccc1C(c1ccccc1)(c1ccccc1)n1ccnc1 is 4.97

* * *

biological target: UniProt:P37288; type: cell membranes, Membrane; conditions: hek293
Sequence (P37288 whole entry): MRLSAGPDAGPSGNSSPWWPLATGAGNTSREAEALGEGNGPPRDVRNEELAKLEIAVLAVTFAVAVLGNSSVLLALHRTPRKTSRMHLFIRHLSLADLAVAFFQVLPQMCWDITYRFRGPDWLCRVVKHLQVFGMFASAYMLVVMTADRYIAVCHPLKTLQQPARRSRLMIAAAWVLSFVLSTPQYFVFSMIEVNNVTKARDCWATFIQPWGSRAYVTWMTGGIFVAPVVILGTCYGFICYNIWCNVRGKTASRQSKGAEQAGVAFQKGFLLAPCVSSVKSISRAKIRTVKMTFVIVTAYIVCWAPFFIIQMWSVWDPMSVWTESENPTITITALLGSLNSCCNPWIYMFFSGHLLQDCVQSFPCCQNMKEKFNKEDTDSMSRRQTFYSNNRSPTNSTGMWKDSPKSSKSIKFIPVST
measured_parameter: IC50

{"compound": "Cc1cc(NS(=O)(=O)c2ccc(N)cc2)no1", "system": "UniProt:P37288", "IC50": "Not Active"}
{"compound": "COc1c(C)c2c(c(O)c1C/C=C(\\C)CCC(=O)OCCN1CCOCC1)C(=O)OC2 [MYCOPHENOLATE MOFETIL]", "system": "UniProt:P37288", "IC50": "Not Active"}
{"compound": "C[C@]12Cc3c[nH]nc3C[C@@H]1CC[C@@H]1[C@@H]2CC[C@@]2(C)[C@H]1CC[C@]2(C)O", "system": "UniProt:P37288", "IC50": "Not Active"}
{"compound": "NC(=O)c1ncn([C@@H]2O[C@H](CO)[C@@H](O)[C@H]2O)n1", "system": "UniProt:P37288", "IC50": "Not Active"}
{"compound": "CN(C)[C@@H]1C(O)=C(C(N)=O)C(=O)[C@@]2(O)C(O)=C3C(=O)c4c(O)cccc4[C@@](C)(O)[C@H]3C[C@@H]12", "system": "UniProt:P37288", "IC50": "Not Active"}

Query COc1ccc(CN(CCN(C)C)c2ccccn2)cc1 yields IC50 of Not Active

Query CC(=O)OCC(=O)[C@@]1(OC(C)=O)[C@@H](C)C[C@H]2[C@@H]3C[C@H](F)C4=CC(=O)C=C[C@]4(C)[C@@]3(F)[C@@H](O)C[C@@]21C [DIFLORASONE DIACETATE] yields IC50 of Not Active

* * *

experiment: DRUGMATRIX: Sigma2 radioligand binding (ligand: [3H] Ifenprodil); type: cell membranes, Rattus norvegicus, Wistar, Brain, Membrane; settings: Not Active = under 50% inhibition at 10 µM; read-out: Ki
Assign pKi to each entry below.
Note on pKi: it is the negative log10 of concentration, concentration in mol/L.

Query CC(CCc1ccccc1)NCC(O)c1ccc(O)c(C(N)=O)c1 (stereo not drawn) [LABETALOL] yields pKi of 5.76

Query CCc1ccc(C(=O)C(C)CN2CCCCC2)cc1 (stereo not drawn) [EPERISONE] yields pKi of 6.18

Query Cc1ccc(C(=O)C(C)CN2CCCCC2)cc1 (stereo not drawn) [TOLPERISONE] yields pKi of 5.68
